tgt: Kelch-like ECH-associated protein 1 (Homo sapiens)
test.method.notes: competitive SPR blockade of Keap1/Nrf2 binding – biophysical, dry powder, orthogonal assay for Keap1-Nrf2 interaction inhibitor project, confirmation (AID 651876)
assay.setup: Keap1 Kelch binding to Nrf2 peptide, at 50 µM, stronger effect = higher value
Please mark Condition met if the recorded inhibition is equal to or greater than 10%, and Condition not met if it falls below.

Query: Decide: is the reported value of inhibition for Cc1ccc(S(=O)(=O)NC2=CC(=N[C@@H](C)C(=O)OC(C)(C)C)C(=O)c3ccccc32)c(C)c1 equal to or greater than 10%?
Reply: Condition met

Query: Say whether O=C(O)CCC(=O)N1CCc2ccccc2C1CN1C(=O)c2ccccc2C1=O (stereo not given) shows inhibition of 10% or more.
Reply: Condition met

Query: Assess whether reported inhibition for O=C(NC[C@@H]1c2ccccc2CCN1C(=O)[C@@H]1CCCC[C@@H]1C(=O)O)c1ccc(CCl)cc1 sits at 10% or higher.
Reply: Condition met

Query: Tell me whether inhibition is at least 10% here: Cc1ccc(S(=O)(=O)Nc2cc(C(C(=O)OC(C)C)C(=O)C(F)(F)F)c(O)c3ccccc23)cc1 (stereo not given)
Reply: Condition met

Query: Threshold query (inhibition >= 10%) on O=S(=O)(Nc1nc(NCC2CCCCC2)nc2ccccc12)c1ccccc1
Reply: Condition not met

Query: Given O=C(O)C1CCCCC1C(=O)N1CCc2ccccc2C1CN1C(=O)c2ccccc2S1(=O)=O (stereo not given) , state whether its inhibition is at least 10%.
Reply: Condition met

Query: Determine whether this compound has inhibition no lower than 10%: O=C(O)C1CCCCC1C(=O)N1CCc2ccccc2[C@H]1C(=O)NCCc1ccccc1 (stereo not given in full)
Reply: Condition not met

Query: Does COC(=O)[C@H]1CCCC[C@H]1C(=O)N1CCc2ccccc2[C@H]1CN1C(=O)c2ccccc2C1=O have a reported inhibition of at least 10%?
Reply: Condition not met

Query: State whether the measured inhibition reaches 10%, counting equality as reaching it, for O=C(O)[C@H]1C2C=CC(C2)[C@H]1C(=O)N1CCc2ccccc2C1CN1C(=O)c2ccccc2C1=O (stereo not given in full)
Reply: Condition met

Query: Determine whether this compound has inhibition no lower than 10%: O=C(O)[C@H]1CCCC[C@H]1C(=O)N1CCc2ccccc2[C@H]1CNS(=O)(=O)c1ccc([N+](=O)[O-])cc1
Reply: Condition met

----------
tgt: Kelch-like ECH-associated protein 1 (Homo sapiens) (UniProt Q14145)
Sequence (Q14145 whole entry, looked up): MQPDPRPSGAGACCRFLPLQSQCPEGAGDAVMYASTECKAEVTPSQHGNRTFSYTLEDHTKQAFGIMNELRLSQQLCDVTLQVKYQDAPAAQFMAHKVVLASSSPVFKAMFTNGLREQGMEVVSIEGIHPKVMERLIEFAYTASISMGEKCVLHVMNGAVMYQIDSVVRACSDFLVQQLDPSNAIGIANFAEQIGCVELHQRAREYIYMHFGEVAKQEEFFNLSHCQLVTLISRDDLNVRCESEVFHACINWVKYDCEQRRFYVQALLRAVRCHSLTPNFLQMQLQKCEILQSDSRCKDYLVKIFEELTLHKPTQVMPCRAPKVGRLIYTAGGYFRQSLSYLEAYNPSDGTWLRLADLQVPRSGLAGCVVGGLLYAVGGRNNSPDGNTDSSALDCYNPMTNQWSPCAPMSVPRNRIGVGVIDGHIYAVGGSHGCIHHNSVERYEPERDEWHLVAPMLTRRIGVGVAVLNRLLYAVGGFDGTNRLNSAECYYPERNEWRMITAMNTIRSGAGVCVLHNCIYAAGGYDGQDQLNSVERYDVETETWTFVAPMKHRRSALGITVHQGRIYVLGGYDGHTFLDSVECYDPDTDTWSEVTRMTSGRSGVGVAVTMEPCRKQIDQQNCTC
test.method.notes: competitive SPR blockade of Keap1/Nrf2 binding – biophysical, dry powder, orthogonal assay for Keap1-Nrf2 interaction inhibitor project, confirmation (AID 651876)
assay.setup: Keap1 Kelch binding to Nrf2 peptide, inhibition, at 5 µM, stronger effect = higher value
measurement.kind: inhibition (%)
Give the value in % but do not write % after it.

NC(=O)c1ccccc1C(=O)NC[C@@H]1c2ccccc2CCN1C(=O)[C@@H]1CCCC[C@@H]1C(=O)O :: 38.6
O=C(NC[C@@H]1c2ccccc2CCN1C(=O)[C@@H]1CCCC[C@@H]1C(=O)O)c1ccc(CN2CCOCC2)cc1 :: -1.2
O=C(Oc1cc(CN2C(=O)c3ccccc3C2=O)c2ccccc2[n+]1[O-])c1cccc(Cl)c1 :: -2.91

Query: # get_value(readout='inhibition', item= COC(=O)[C@H]1CCCC[C@H]1C(=O)N1CCc2ccccc2[C@H]1CN1C(=O)c2ccccc2C1=O )
Reply: -0.6

Query: Suppose we examine the compound CCOC(=O)Cc1nc(NS(=O)(=O)c2c(C)cc(C)cc2C)c2ccccc2n1 ; what inhibition value has been reported?
Reply: 5.5

Query: Need inhibition of Cc1ccccc1S(=O)(=O)Nc1cc(C(C(=O)OC(C)C)C(=O)C(F)(F)F)c(O)c2ccccc12 (stereo not drawn) , thanks.
Reply: 49.5

Query: Would you kindly share the measured inhibition for O=C(O)C1CCCCC1C(=O)N1CCc2ccccc2C1CN1C(=O)c2ccccc2S1(=O)=O (stereo not drawn) ?
Reply: 18.5

Query: Can you share its inhibition? I mean this compound: COC(=O)C1CCCCC1C(=O)N1CCc2ccccc2C1CN1C(=O)c2ccccc2C1=O (stereo not drawn)
Reply: 3.3

----------
tgt: Kelch-like ECH-associated protein 1 (Homo sapiens)
test.method.notes: competitive SPR blockade of Keap1/Nrf2 binding – biophysical, dry powder, orthogonal assay for Keap1-Nrf2 interaction inhibitor project, confirmation (AID 651876)
assay.setup: Keap1 Kelch binding to Nrf2 peptide, at 50 µM, stronger effect = higher value
Values of inhibition greater than or equal to 20% map to Fulfilled; values below map to Not fulfilled.

Known results for compounds:
COC(=O)CNc1nc(NS(=O)(=O)c2c(C)cc(C)cc2C)c2ccccc2n1 :: Not fulfilled
O=C(O)C1CCCCC1C(=O)Nc1ccccc1CN1C(=O)c2ccccc2C1=O (stereo not drawn) :: Not fulfilled
O=C(NC[C@@H]1c2ccccc2CCN1C(=O)[C@@H]1CCCC[C@@H]1C(=O)O)c1ccc(CN2CCOCC2)cc1 :: Fulfilled
CC(=O)Nc1cc(NS(=O)(=O)c2c(C)cc(C)cc2C)c2ccccc2c1O :: Not fulfilled

Query: Confirm if inhibition reported for the compound O=C(O)C1CCCCC1C(=O)N1CCc2ccccc2C1CN1Cc2ccccc2C1=O (stereo not drawn) is 20% or above.
Reply: Fulfilled

Query: Has O=C(Cc1ccccc1)NC[C@@H]1c2ccccc2CCN1C(=O)[C@@H]1CCCC[C@@H]1C(=O)O a recorded inhibition greater than or equal to 20%?
Reply: Fulfilled

Query: Record O=C(O)C1CCCCC1C(=O)N1CCc2ccccc2C1c1ccccc1 (stereo not drawn) ; criterion: inhibition no lower than 20%. Met?
Reply: Not fulfilled

Query: Say whether O=C(O)/C=C\C(=O)N1CCc2ccccc2C1CN1C(=O)c2ccccc2C1=O (stereo not drawn) shows inhibition of 20% or more.
Reply: Fulfilled

Query: Test whether the compound Cc1cc(C)c(S(=O)(=O)Nc2cc(C(C(=O)OCc3ccccc3)C(=O)OCc3ccccc3)c(O)c3ccccc23)c(C)c1 records inhibition of 20% or higher.
Reply: Not fulfilled

Query: Does inhibition meet or surpass 20% for CCOC(=O)Cc1nc(NS(=O)(=O)c2c(C)cc(C)cc2C)c2ccccc2n1 ?
Reply: Not fulfilled

Query: Answer whether inhibition of O=C(O)[C@H]1CCCC[C@H]1C(=O)N1CCc2ccccc2[C@H]1CNc1nc(Cl)nc2ccccc12 is greater than or equal to 20%.
Reply: Not fulfilled

Query: // inclusive: inhibition at least 20%? input: O=C(Oc1cc(CN2C(=O)c3ccccc3C2=O)c2ccccc2[n+]1[O-])c1cccc(Cl)c1
Reply: Not fulfilled

Query: Record NC(=O)[C@H]1CCCC[C@H]1C(=O)N1CCc2ccccc2[C@H]1CN1C(=O)c2ccccc2C1=O ; criterion: inhibition no lower than 20%. Met?
Reply: Fulfilled

----------
Each item that follows carries a reported inhibition.
tgt: Kelch-like ECH-associated protein 1 (Homo sapiens)
test.method.notes: competitive SPR blockade of Keap1/Nrf2 binding – biophysical, dry powder, orthogonal assay for Keap1-Nrf2 interaction inhibitor project, confirmation (AID 651876)
assay.setup: Keap1 Kelch binding to Nrf2 peptide, at 50 µM, stronger effect = higher value
Activity calls are given as the source filed them.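 How the source made its calls: active means inhibition above 20% at 50 µM; inactive means the rest.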

O=C(O)c1ccccc1C(=O)N1CCc2ccccc2C1CN1C(=O)c2ccccc2C1=O (stereo not given) :: 9.9% (inactive)
Cc1ccc(S(=O)(=O)NC[C@@H]2c3ccccc3CCN2C(=O)[C@@H]2CCCC[C@@H]2C(=O)O)c(C)c1 :: 17.1% (inactive)
CCOC(=O)C(C(=O)OCC)c1cc(CNS(=O)(=O)c2ccc(C)cc2C)c2ccccc2n1 :: 4.8% (inactive)
O=C(NCCO)c1ccccc1C(=O)NC[C@@H]1c2ccccc2CCN1C(=O)C1CCCCC1C(=O)O (stereo not given in full) :: 32.1%
O=C(O)[C@H]1CCCC[C@H]1C(=O)N1CCc2ccccc2[C@H]1CNS(=O)(=O)c1ccccc1 :: 12.9% (inactive)

Shift focus to the following entry.
Query: Entry O=C1c2ccccc2C(=O)N1CC1c2ccccc2CCN1C(=O)Cc1ccccc1 (stereo not given) : reported inhibition = ?
Reply: 3.5% (inactive)

----------
tgt: Kelch-like ECH-associated protein 1 (Homo sapiens) (UniProt Q14145)
test.method.notes: competitive SPR blockade of Keap1/Nrf2 binding – biophysical, dry powder, orthogonal assay for Keap1-Nrf2 interaction inhibitor project, confirmation (AID 651876)
assay.setup: Keap1 Kelch binding to Nrf2 peptide, inhibition, at 5 µM, stronger effect = higher value
Catalogue of inhibition values
Only the number, expressed in %, is required.

Query: For the compound O=C(NCCc1ccccc1)c1ccccc1C(=O)NC[C@@H]1c2ccccc2CCN1C(=O)C1CCCCC1C(=O)O (stereo not given in full) , what inhibition is on record?
Reply: 3.3

Query: Which value of inhibition has been reported for CC(C)CNc1nc(NS(=O)(=O)c2ccccc2)c2ccccc2n1 in the records?
Reply: 1

Query: Would you kindly share the measured inhibition for O=C(NC[C@@H]1c2ccccc2CCN1C(=O)[C@@H]1CCCC[C@@H]1C(=O)O)OCC1c2ccccc2-c2ccccc21 ?
Reply: 5

Query: Fill blank: measured inhibition of the compound O=C(NC[C@@H]1c2ccccc2CCN1C(=O)[C@@H]1CCCC[C@@H]1C(=O)O)c1ccc(CCl)cc1 is ____.
Reply: -1

Query: Fill blank: measured inhibition of the compound O=C(O)C1CCCCC1C(=O)N1CCc2ccccc2C1CN1Cc2ccccc2C1=O (stereo not given) is ____.
Reply: 27.7

Query: Return reported inhibition; argument: Cc1cc(C)c(S(=O)(=O)Nc2cc(C(C(=O)OCc3ccccc3)C(=O)OCc3ccccc3)c(O)c3ccccc23)c(C)c1
Reply: 4.69
